# System: Marganella morganii 1510
measurementType: MIC (mg/L)
// units = mg/L; emit number, no label

// solved cases for MIC follow
INSERT INTO assay_data (compound, measurementtype, endpointunit, recordedvalue) VALUES
  ('CO/N=C(\C(=O)NC1C(=O)N2C(C(=O)O)=C(SCC3CCOCC3)CS[C@H]12)c1csc(N)n1 (stereo partly shown) [Compound No. 31]', 'MIC', 'mg/L', 100),
  ('Nc1nc(/C(=N/O)C(=O)NC2C(=O)N3C(C(=O)O)=C(SC4CCOCC4)CS[C@H]23)cs1 (stereo partly shown) [Compound No. 15]', 'MIC', 'mg/L', 50),
  ('CO/N=C(\C(=O)NC1C(=O)N2C(C(=O)O)=C(SC3CCOC3)CS[C@H]12)c1csc(N)n1 (stereo partly shown) [Compound No. 3]', 'MIC', 'mg/L', 25);

Exam item: Which MIC is reported with Marganella morganii 1510 for this entry: CO/N=C(\C(=O)NC1C(=O)N2C(C(=O)O)=C(SCC3CCOC3)CS[C@H]12)c1csc(N)n1 (stereo partly shown) [Compound No. 27] ?
Marked response: 25

Exam item: Which MIC is reported with Marganella morganii 1510 for this entry: CO/N=C(\C(=O)NC1C(=O)N2C(C(=O)O)=C(SCC3CCCO3)CS[C@H]12)c1csc(N)n1 (stereo partly shown) [Compound No. 1] ?
Marked response: 50

Exam item: Which MIC is reported with Marganella morganii 1510 for this entry: Nc1nc(/C(=N/O)C(=O)NC2C(=O)N3C(C(=O)O)=C(SCC4COCO4)CSC23)cs1 (stereo not shown) [Compound No. 35] ?
Marked response: 50

Exam item: Which MIC is reported with Marganella morganii 1510 for this entry: Nc1nc(/C(=N/O)C(=O)NC2C(=O)N3C(C(=O)O)=C(SC4CCOC4)CS[C@H]23)cs1 (stereo partly shown) [Compound No. 13] ?
Marked response: 12.5

Exam item: Which MIC is reported with Marganella morganii 1510 for this entry: Nc1nc(/C(=N/O)C(=O)NC2C(=O)N3C(C(=O)O)=C(SCC4CCOCC4)CS[C@H]23)cs1 (stereo partly shown) [Compound No. 37] ?
Marked response: 100

Exam item: Which MIC is reported with Marganella morganii 1510 for this entry: CO/N=C(\C(=O)NC1C(=O)N2C(C(=O)O)=C(SC3COCOC3)CSC12)c1csc(N)n1 (stereo not shown) [Compound No. 19] ?
Marked response: 12.5

Exam item: Which MIC is reported with Marganella morganii 1510 for this entry: CO/N=C(\C(=O)NC1C(=O)N2C(C(=O)O)=C(SCC3CCOC(C)(C)O3)CS[C@H]12)c1csc(N)n1 (stereo partly shown) [Compound No. 9] ?
Marked response: 100

Exam item: Which MIC is reported with Marganella morganii 1510 for this entry: CO/N=C(\C(=O)NC1C(=O)N2C(C(=O)O)=C(SCC3COCOC3)CS[C@H]12)c1csc(N)n1 (stereo partly shown) [Compound No. 33] ?
Marked response: 100

====

Listing of recorded NOAEL by entry.
# assayMethodText: oral toxicity in mice
# statedConditions: mouse, in vivo, oral administration, read-out: oral dosage tolerated without exhibiting toxic symptoms
// units = mg/kg; emit number, no label

INSERT INTO measurements (compound, endpointunit, recordedvalue) VALUES
  ('CO/N=C(\C(=O)NC1C(=O)N2C(C(=O)OCOC(=O)C(C)(C)C)=C(SC3CCOC3)CS[C@H]12)c1csc(N)n1 (stereo partly drawn)', 'mg/kg', 3000),
  ('CO/N=C(\C(=O)NC1C(=O)N2C(C(=O)OCOC(=O)C(C)(C)C)=C(SCC3COCO3)CS[C@H]12)c1csc(N)n1 (stereo partly drawn)', 'mg/kg', 3000);

Here is another compound to look at.
Exam item: Using the record for CO/N=C(\C(=O)NC1C(=O)N2C(C(=O)OCOC(=O)C(C)(C)C)=C(SCC3CCOC3)CS[C@H]12)c1csc(N)n1 (stereo partly drawn) , report its NOAEL.
Marked response: 3000
